# assayed.target: Myc proto-oncogene protein (Homo sapiens) (UniProt P01106)
# Sequence (P01106 whole entry, looked up): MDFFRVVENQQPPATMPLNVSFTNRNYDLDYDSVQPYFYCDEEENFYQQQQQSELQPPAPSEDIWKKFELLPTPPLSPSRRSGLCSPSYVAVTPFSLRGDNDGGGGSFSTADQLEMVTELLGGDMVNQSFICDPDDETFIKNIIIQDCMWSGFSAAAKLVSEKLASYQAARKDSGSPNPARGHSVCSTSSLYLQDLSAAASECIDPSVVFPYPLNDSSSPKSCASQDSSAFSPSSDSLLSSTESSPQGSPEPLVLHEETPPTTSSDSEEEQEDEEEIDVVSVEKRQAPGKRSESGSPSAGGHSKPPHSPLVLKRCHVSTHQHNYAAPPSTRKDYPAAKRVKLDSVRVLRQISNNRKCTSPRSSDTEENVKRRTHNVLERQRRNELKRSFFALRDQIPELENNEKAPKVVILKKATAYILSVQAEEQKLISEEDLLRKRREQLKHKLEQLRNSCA
# procedure.summary: small molecules binding His-tagged c-Myc – biochemical, small molecule microarray, anti-His fluorescence, primary screen (AID 624141)
In all, about 17,000 compounds went through this assay and about 260 (1.5%) were called active.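 Rule for the calls: active = spot fluorescence over background with P-value below 7% in all four replicate spots, showing protein binding; inactive = the rest.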 Many of the other results were omitted from the sample, so actives are more common in it than they were.
Would you mind answering with one of these outcomes? 1 = active, -1 = inactive

1) C[C@@H]1CN([C@H](C)CO)C(=O)c2cc(N(C)C)ccc2O[C@@H]1CN(C)S(=O)(=O)c1cn(C)cn1; -1
2) C[C@@H]1CN([C@H](C)CO)C(=O)Cc2cc(NC(=O)C3CC3)ccc2O[C@H]1CN(C)Cc1ccc(Cl)c(Cl)c1; 1
3) CCn1c2ccccc2c2nnc(SCC(=O)O)nc21; -1

Per the records of this test, what outcome belongs to C[C@H](CO)N1C[C@H](C)[C@@H](CN(C)C(=O)Nc2ccccc2)Oc2ccc(NC(=O)C3CC3)cc2CC1=O ?
-1

----------
# assayed.target: Myc proto-oncogene protein (Homo sapiens)
# procedure.summary: small molecules binding His-tagged c-Myc – biochemical, small molecule microarray, anti-His fluorescence, primary screen (AID 624141)
The campaign covered roughly 17,000 compounds. About 260 (1.5%) were called active.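 How the source made its calls: active means spot fluorescence over background with P-value below 7% in all four replicate spots, showing protein binding; inactive means the rest.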 What follows is part of a selection rich in actives, with near analogues and random picks from the rest.
Parameter call: string, one of active, inactive

Worked cases, answers included:
1. C[C@H](CO)N1C[C@H](C)[C@H](CN(C)C(=O)Nc2ccc(C(F)(F)F)cc2)Oc2ccc(NS(=O)(=O)c3ccccc3)cc2CC1=O; inactive
2. CN(C)c1nc(N)nc(CSc2ccccn2)n1; inactive
3. COc1ccc(NC(=O)N(C)C[C@@H]2Oc3ccc(NS(C)(=O)=O)cc3C(=O)N([C@@H](C)CO)C[C@@H]2C)cc1; inactive
4. O=C(O)CCC(=O)Nc1ccc(-c2nc3ccccc3o2)cc1; inactive
5. Cc1nc(SCC(N)=O)c(C(N)=O)c(C)c1C; inactive
6. Cc1noc(C)c1NC(=O)N(C)C[C@@H]1Oc2ccc(NC(=O)Nc3ccc4c(c3)OCO4)cc2C(=O)N([C@H](C)CO)C[C@H]1C; inactive
7. COCCOC(=O)N1C(=O)[C@@]2(c3cc(C#CCNC(N)=O)ccc31)[C@H](C(=O)N1CCN(c3ncccn3)CC1)[C@H]1C(=O)O[C@H](c3ccccc3)[C@H](c3ccccc3)N1[C@@H]2c1ccccc1OCCO; inactive
8. COc1ccc2ccccc2c1CNCc1ccccn1; active
9. C/C=C1/[C@H](O[C@@H]2O[C@H](CO)[C@@H](O)[C@H](O)[C@H]2O)OC=C2C(=O)O[C@@H]3C[C@@H](C(C)CO)[C@H](COC(=O)C[C@H]21)[C@H]3C (some centres not stated); inactive
10. CCCCc1nn(-c2ccccc2C(F)(F)F)c(=O)n1Cc1ccc(-c2ccccc2S(=O)(=O)NC(=O)c2sccc2C)cc1; active

Now consider the entry below.
Entry c1ccc2[nH]c(NCCN3CCOCC3)nc2c1 : call = ?
inactive
